Data credit: the supplement of paper PMC10567573

B1: PPP2R2B (parent)
chain: RNTKRDVTLEASRENSKPRAILKP

- Variants of: B1
- test-details: protein stability index of a GFP-peptide fusion (GPS, HEK-293T) (PSI 1-6); higher = more stable;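 also: lentivirally expressed fusions sorted by FACS into six bins by GFP to DsRed ratio, PSI derived from sequencing read proportions per bin multiplied by bin number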
- particulars: c terminus: a fixed tail appended
measured-quantity: protein stability index
Give the figure only, with no unit attached.

Some entries whose results are on file:
{"mutant-name": "P18K", "protein stability index": 4.73}
{"mutant-name": "N2W", "protein stability index": 3.34}
{"mutant-name": "I21Q", "protein stability index": 4.8}
{"mutant-name": "R1T", "protein stability index": 4.99}
{"mutant-name": "N2H", "protein stability index": 4.66}
{"mutant-name": "A20R", "protein stability index": 4.66}
{"mutant-name": "I21S", "protein stability index": 4.78}
{"mutant-name": "A11G", "protein stability index": 4.49}

Turning now to a further record.
Identify measured protein stability index corresponding to T3V 4.57
